Molecular target: HLA-DRB1*01:01 tetramer (Homo sapiens, UniProt P01903+P01911, A100R/D57E/F55L/F60I/F76Y/I96L/L162R/M171V/P40L/Q125E/R42F/V115G/Y59C)
Assay type: binding
property: % pept exch (%)
Express it in %; write the number only.

Before answering, review these 3 worked examples.
PVSKMRMATPLLMQA [reference compound] :: 91.98
FNNFIVSFWLRVPKVSASHLE :: 89.53
FHTYTIDWTKDAVTVV :: 1.119

Please look at the following sequence next.
Memo: `AKFVAAWTLKAAA` , reported % pept exch: 27.9

###

Catalogue of % pept exch readings, one per entry.
Target: HLA-DRB1*15:01 monomer (Homo sapiens, UniProt P01903+P01911)
Construct: the extracellular domain of the MHC class II α chain and β chain to which leucine zipper motifs are added; leucine zipper motif
Format: binding
Express it in %; write the number only.

Memo: PVSKMRMATPLLMQA [reference compound] , reported % pept exch: 98.73

Memo: `FHTYTIDWTKDAVTVV` , reported % pept exch: 20.72

Memo: `FNNFIVSFWLRVPKVSASHLE` , reported % pept exch: 81.51

Memo: `AKFVAAWTLKAAA` , reported % pept exch: 5.051

Data provenance is patent US20220177542A1.
